biological target: Amine oxidase [flavin-containing] A (Bos taurus, UniProt P21398)
Sequence (P21398 whole entry): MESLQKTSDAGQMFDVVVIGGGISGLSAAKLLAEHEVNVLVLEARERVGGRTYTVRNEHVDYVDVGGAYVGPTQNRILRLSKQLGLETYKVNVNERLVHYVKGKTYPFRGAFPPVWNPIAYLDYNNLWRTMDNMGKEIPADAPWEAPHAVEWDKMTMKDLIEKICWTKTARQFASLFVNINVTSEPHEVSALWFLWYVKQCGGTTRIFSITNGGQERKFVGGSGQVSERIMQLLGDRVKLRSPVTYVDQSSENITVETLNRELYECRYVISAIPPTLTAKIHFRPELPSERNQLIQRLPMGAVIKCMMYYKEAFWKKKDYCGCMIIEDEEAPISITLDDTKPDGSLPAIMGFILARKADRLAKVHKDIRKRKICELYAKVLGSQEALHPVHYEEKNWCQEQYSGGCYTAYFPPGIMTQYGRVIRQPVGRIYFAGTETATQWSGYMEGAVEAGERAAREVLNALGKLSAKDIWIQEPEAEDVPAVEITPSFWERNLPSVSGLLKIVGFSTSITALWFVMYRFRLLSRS

- smiles notation: "O=c1c(O)c(-c2ccc(O)c(O)c2)oc2cc(O)cc(O)c12"
  IC50, nM: 10

====

Target: Amine oxidase [flavin-containing] B (Bos taurus, UniProt P56560)
Sequence (P56560 whole entry): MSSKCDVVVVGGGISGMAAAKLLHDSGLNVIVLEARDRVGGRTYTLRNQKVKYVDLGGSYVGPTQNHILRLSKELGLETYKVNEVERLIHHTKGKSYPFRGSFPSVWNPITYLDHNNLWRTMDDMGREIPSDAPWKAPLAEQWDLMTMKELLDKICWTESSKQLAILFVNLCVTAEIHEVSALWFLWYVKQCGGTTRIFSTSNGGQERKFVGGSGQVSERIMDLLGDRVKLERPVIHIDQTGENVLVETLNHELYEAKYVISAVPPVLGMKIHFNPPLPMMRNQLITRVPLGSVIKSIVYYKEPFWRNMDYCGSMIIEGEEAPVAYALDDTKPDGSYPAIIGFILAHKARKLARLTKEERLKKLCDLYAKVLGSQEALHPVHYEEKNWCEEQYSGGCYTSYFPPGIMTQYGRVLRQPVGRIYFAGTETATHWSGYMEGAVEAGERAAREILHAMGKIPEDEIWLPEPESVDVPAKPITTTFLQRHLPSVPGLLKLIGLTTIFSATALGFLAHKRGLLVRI

- molecule: "O=c1c(O)c(-c2ccc(O)c(O)c2)oc2cc(O)cc(O)c12 [QUERCETIN]"
  unit text: "µM"
  IC50: 20

Reference source for all entries: ChEMBL document CHEMBL1157970
